# EXPERIMENTAL_PROTOCOL: Selectivity index, ratio of IC50 for cytotoxicity against human HDF cells to IC50 for cytotoxicity against human A549 cells
# Format: toxicity, cell-based
# EXPERIMENTAL_CONTEXT: HDF cells versus A549 cells, read-out: Ratio IC50
MEASUREMENT_LABEL: selectivity ratio
Lab note: record the figure alone, no unit after it.

Answered examples (2):
MOLECULE_SMILES	selectivity ratio
CO[C@H]1/C=C\C=C(/C)C(=O)NC2=CC(=O)C(NCCCCCCO)=C(C[C@@H](C)C[C@H](OC)[C@H](O)[C@@H](C)/C=C(\C)[C@@H]1OC(N)=O)C2=O	2.16
CO[C@H]1/C=C\C=C(/C)C(=O)NC2=CC(=O)C(NCc3cccc(CS(=O)(=O)N(C(C)C)C(C)C)c3)=C(C[C@@H](C)C[C@H](OC)[C@H](O)[C@@H](C)/C=C(\C)[C@@H]1OC(N)=O)C2=O	1.81

**Query** I have this compound here, CCOC(=O)[C@@H](N)CCCCNC1=C2C[C@@H](C)C[C@H](OC)[C@H](O)[C@@H](C)/C=C(\C)[C@H](OC(N)=O)[C@@H](OC)/C=C\C=C(/C)C(=O)NC(=CC1=O)C2=O , and I need its recorded selectivity ratio.
**Result** 2.29

---

# EXPERIMENTAL_PROTOCOL: Selectivity index, ratio of IC50 for cytotoxicity against human HDF cells to IC50 for cytotoxicity against human PC-3 cells
# Assay type: toxicity, cell-based
# EXPERIMENTAL_CONTEXT: HDF cells versus PC-3 cells, read-out: Ratio IC50
MEASUREMENT_LABEL: selectivity ratio
Lab note: record the figure alone, no unit after it.

MOLECULE_SMILES	selectivity ratio
CO[C@H]1/C=C\C=C(/C)C(=O)NC2=CC(=O)C(NC3CCN(Cc4ccccc4)CC3)=C(C[C@@H](C)C[C@H](OC)[C@H](O)[C@@H](C)/C=C(\C)[C@@H]1OC(N)=O)C2=O	4.83
CO[C@@H](/C=C/C=C(/C)C(N)=O)[C@@H](OC(N)=O)/C(C)=C/[C@H](C)[C@@H](O)[C@H](C[C@H](C)CC1=C(NCCCN2CCCC2)C(=O)C=C(NCCCN2CCCC2)C1=O)OC	2.27

Could you now look at the following molecule, please?
**Query** I have this molecule here, CCOC(=O)[C@@H](N)CCCCNC1=C2C[C@@H](C)C[C@H](OC)[C@H](O)[C@@H](C)/C=C(\C)[C@H](OC(N)=O)[C@@H](OC)/C=C\C=C(/C)C(=O)NC(=CC1=O)C2=O , and I need its recorded selectivity ratio.
**Result** 2.53

---

# EXPERIMENTAL_PROTOCOL: Selectivity index, ratio of IC50 for cytotoxicity against human HDF cells to IC50 for cytotoxicity against human U-87 MG cells
# Assay type: toxicity, cell-based
# EXPERIMENTAL_CONTEXT: HDF cells versus U-87 MG cells, read-out: Ratio IC50
Each record gets a class by selectivity ratio: bucket A = under 2, bucket B = from 2 up to 7, bucket C = 7 and over

**Query** Which band does CO[C@@H](C=CC=C(C)C(N)=O)[C@@H](OC(N)=O)/C(C)=C/[C@H](C)[C@@H](O)[C@H](C[C@H](C)CC1=C(NCCCCCCO)C(=O)C=C(NCCCCCCO)C1=O)OC fall in?
**Result** bucket A

**Query** Next molecule up: CO[C@H]1/C=C\C=C(/C)C(=O)NC2=CC(=O)C(NCc3ccc(CS(N)(=O)=O)cc3)=C(C[C@@H](C)C[C@H](OC)[C@H](O)[C@@H](C)/C=C(\C)[C@@H]1OC(N)=O)C2=O
**Result** bucket A

**Query** Next molecule up: CO[C@H]1/C=C\C=C(/C)C(=O)NC2=CC(=O)C(NC3CCN(C(=O)OC(C)(C)C)CC3)=C(C[C@@H](C)C[C@H](OC)[C@H](O)[C@@H](C)/C=C(\C)[C@@H]1OC(N)=O)C2=O
**Result** bucket C

All values here come from ChEMBL document CHEMBL4765380.
